Where do the numbers come from? From patent US9216964B2.

- Tested on: hedgehog signaling pathway
- Method: Gli-Luc Reporter Assay for Hh Pathway Inhibition (TMHh-12 cells, pTA-8×Gli-Luc reporter)
- Assay type: cell-based, Mouse
- Assay setup: Mus musculus, TMHh12, enzymatic and cellular assays for the inhibition of hedgehog signaling pathways; read-out: IC50 Ranges
- Protocol: Compounds of the present invention are assayed to evaluate their capacity to inhibit the hedgehog signaling pathway. Gli-Luc Reporter Assay for Hh Pathway Inhibition […]
pIC50: −log10 of the molar value.
Outcome measure: pIC50

[ask] Provide pIC50, tested on hedgehog signaling pathway, for CCOc1cnc(-c2cc(Nc3cccc4c3CCN(C3CCS(=O)(=O)CC3)C4)ccc2C)cn1 .
[reply] 8.00 to 9.00

[ask] Report its pIC50 with hedgehog signaling pathway as the test system: Cc1ccc(-c2cc(Nc3ncnc4c3CCN(C3CCS(=O)(=O)CC3)C4)ccc2C)nc1
[reply] 7.00 to 8.00

[ask] Name the value of pIC50 reported for O=C(O)C(F)(F)CN1CCc2c(cccc2Nc2ccc(Cl)c(-c3nc(-c4ccccc4)c[nH]3)c2)C1 when tested on hedgehog signaling pathway.
[reply] 8.00 to 9.00

[ask] Look up and report pIC50, with hedgehog signaling pathway as system, for CN(C)CC(C)(C)CN1CCc2c(cccc2Nc2ccc(Cl)c(-c3ncc(-c4ccccc4)[nH]3)c2)C1
[reply] 9.00 to 12.00

[ask] Find the measured pIC50 of COc1ccc(-c2cc(Nc3cccc4c3CCN(CCS(C)(=O)=O)C4)ccc2C)nn1 with hedgehog signaling pathway as test system.
[reply] 8.00 to 9.00

[ask] Provide pIC50, recorded with hedgehog signaling pathway, of O=C(N1CCc2c(cccc2Nc2ccc(Cl)c(-c3ncc(-c4ccccc4)[nH]3)c2)C1)C1(O)CC1
[reply] 9.00 to 12.00
